// read-out Ki, gathered for 5-hydroxytryptamine receptor 1B (Rattus norvegicus) from published studies
quantity_measured: Ki (nM)

INSERT INTO assay_data (compound, measurement_target, measured_value) VALUES
  ('c1ccc2c(c1)CC(CCN1CCN(c3cccc4c3OCCO4)CC1)C2', '5-hydroxytryptamine receptor 1B (Rattus norvegicus)', 692);

1 = CN(C)CCCSc1ccccc1NC(=O)/C=C/c1ccccc1
2 = COc1cccc2c1[C@@H]1CCN(CCCN3C(=O)CC4(CCCC4)CC3=O)C[C@H]1C2
Prompt: # min-compare on Ki between 1 and 2 Select an item and report its label.
Completion: 1
(1: 1000 nM, 2: 7360 nM)

a = COc1cc2c(cc1OC)C(CCN1CCN(c3cccc4c3OCCO4)CC1)C2 (stereo unspecified)
b = CN1CCOC(COc2cccc3c2OCC(C#N)=C3)C1 (racemic)
c = Clc1cccc2c1CC2CN1CCN(c2cccc3c2OCCO3)CC1 (stereo unspecified)
d = COc1c2c(cc3ccccc13)CCC(N)C2 (stereo unspecified)
e = COc1cccc2c1[C@@H]1CCN(CCCN3C(=O)CC4(CCCC4)CC3=O)C[C@@H]1C2
Prompt: List items by Ki in falling order. Arrange the labels as the request states and list them.
Completion: e, b, a, c, d
